B1: C1orf137 (parent)
chain: RQHHHQSSFPGSLPQETNLTLKVC

Variants of: B1
Experiment: protein stability index of a GFP-peptide fusion (GPS, HEK-293T) (PSI 1-6); higher = more stable;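 note: lentivirally expressed fusions sorted by FACS into six bins by GFP to DsRed ratio, PSI derived from sequencing read proportions per bin multiplied by bin number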
Details: c terminus: a fixed tail appended
Decision: protein stability index >= 3 yields True, all other cases yield False.

Before answering, review these 5 worked examples.
> print(dat)
   mutation  category.label
1      K22S            True
2      C24A            True
3      C24H            True
4       H5G           False
5       S8C           False

q: Evaluate `F9S` : protein stability index at minimum 3?
a: True

q: For this variant, is measured protein stability index 3 or higher? `C24D`
a: True

q: In plain terms: is recorded protein stability index at least 3 for `N18K` ?
a: False

q: hey, is protein stability index for this one >= 3? `E16S`
a: False

q: Has `H4I` a recorded protein stability index greater than or equal to 3?
a: False

q: Decide: protein stability index of `L19E` >= 3?
a: True

q: Hello, I need to know if `Q6F` has measured protein stability index not below 3. Thanks!
a: False

q: Decide: protein stability index of `R1P` >= 3?
a: False

q: Kindly determine if protein stability index recorded for `V23A` is above or exactly 3.
a: True

q: Is the recorded value of protein stability index equal to or greater than 3 for this variant? `L21K`
a: True

q: Form field: protein stability index at least 3? Entry: `H5Q`
a: False

q: Could you tell me if the measured protein stability index of `N18H` reaches 3 or more?
a: False

q: Can `S8A` be said to have protein stability index at or above 3?
a: False

q: Check the entry `R1K` : does protein stability index equal or exceed 3?
a: False

q: # bool: protein stability index of `F9H` >= 3
a: True
